Reported ABCA1-dependent cholesterol efflux EC50 by item:
SYSTEM TESTED: ATP-binding cassette transporter A1 (ABCA1) (mouse, UniProt P41233 1-2261)
Sequence (P41233 whole entry): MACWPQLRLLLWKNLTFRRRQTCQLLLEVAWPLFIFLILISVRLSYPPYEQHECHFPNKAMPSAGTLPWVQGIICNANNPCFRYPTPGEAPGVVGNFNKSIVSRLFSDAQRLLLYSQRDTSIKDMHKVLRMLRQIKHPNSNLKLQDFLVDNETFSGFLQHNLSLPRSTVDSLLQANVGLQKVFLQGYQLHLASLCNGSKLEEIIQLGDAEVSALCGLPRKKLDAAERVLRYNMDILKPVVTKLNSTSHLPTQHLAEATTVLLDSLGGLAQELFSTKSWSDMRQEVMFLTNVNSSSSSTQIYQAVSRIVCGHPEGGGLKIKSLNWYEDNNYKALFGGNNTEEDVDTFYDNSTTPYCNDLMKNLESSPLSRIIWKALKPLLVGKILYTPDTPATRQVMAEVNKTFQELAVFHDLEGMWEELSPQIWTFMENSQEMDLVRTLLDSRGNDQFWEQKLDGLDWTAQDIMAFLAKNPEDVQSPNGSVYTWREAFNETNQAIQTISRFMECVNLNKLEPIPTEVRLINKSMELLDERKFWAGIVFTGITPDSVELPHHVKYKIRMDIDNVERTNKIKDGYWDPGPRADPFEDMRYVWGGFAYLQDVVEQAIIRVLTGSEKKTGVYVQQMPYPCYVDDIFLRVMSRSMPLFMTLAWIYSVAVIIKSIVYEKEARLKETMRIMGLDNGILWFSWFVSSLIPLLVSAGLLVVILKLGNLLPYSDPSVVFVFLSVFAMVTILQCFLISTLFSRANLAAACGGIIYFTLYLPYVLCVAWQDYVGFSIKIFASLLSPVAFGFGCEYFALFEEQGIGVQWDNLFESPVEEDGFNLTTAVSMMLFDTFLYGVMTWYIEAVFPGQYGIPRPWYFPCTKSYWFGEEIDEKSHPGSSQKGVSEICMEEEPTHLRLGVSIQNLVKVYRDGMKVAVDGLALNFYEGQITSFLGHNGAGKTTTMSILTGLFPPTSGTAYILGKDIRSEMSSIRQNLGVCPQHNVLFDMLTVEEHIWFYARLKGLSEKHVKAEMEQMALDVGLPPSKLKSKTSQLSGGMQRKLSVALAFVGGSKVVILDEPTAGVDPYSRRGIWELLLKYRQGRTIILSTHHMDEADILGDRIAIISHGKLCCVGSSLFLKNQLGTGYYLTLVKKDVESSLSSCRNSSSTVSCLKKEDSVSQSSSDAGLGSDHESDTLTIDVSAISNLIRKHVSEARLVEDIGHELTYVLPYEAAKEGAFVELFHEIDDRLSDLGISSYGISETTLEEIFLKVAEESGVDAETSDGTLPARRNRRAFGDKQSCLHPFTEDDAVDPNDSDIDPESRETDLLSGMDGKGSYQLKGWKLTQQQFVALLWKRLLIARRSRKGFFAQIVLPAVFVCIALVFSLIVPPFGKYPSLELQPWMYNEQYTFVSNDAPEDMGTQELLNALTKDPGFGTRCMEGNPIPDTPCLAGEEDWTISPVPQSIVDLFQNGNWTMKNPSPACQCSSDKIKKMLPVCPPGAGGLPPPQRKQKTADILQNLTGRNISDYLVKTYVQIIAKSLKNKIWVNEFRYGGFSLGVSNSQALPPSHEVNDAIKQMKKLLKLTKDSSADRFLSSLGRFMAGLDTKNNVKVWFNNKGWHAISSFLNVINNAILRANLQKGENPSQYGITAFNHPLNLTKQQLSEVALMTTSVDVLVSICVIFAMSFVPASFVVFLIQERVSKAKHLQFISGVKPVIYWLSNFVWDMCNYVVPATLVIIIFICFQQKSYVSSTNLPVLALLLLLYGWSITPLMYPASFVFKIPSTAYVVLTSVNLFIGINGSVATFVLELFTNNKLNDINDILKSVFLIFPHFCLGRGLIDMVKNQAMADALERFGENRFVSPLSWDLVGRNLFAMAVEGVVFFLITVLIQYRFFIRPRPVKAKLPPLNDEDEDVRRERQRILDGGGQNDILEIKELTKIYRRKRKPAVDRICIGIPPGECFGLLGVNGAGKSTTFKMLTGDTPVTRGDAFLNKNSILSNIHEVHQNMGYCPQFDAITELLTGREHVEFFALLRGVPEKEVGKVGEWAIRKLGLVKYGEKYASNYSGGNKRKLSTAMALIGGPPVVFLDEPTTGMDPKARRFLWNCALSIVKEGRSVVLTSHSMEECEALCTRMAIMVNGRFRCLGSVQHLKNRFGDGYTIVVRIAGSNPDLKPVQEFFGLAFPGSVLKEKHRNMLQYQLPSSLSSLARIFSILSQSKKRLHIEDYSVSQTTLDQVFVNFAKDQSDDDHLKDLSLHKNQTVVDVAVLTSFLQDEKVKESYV
PROCEDURE DETAILS: cell-based or functional assay
Where no end group is shown, it is not given here. [ ]: non-standard residue; d: D form. Gly(oct-7-en-1-yl) = C=CCCCCCC[C@H](N)C(=O)O; dGly(6-heptenyl) = C=CCCCCC[C@@H](N)C(=O)O; Ala(5-hexenyl) = C=CCCCCC[C@H](N)C(=O)O; Gla = N[C@@H](CC(C(=O)O)C(=O)O)C(=O)O
# include the unit after the value

// below: answered binders
- BINDER: "Ac-[dP][dV][dL][dD][dE][dF][dR][dE][dK][dL][dN][dE][dGly(6-heptenyl)][dL][dE][dA][dL][dK][dQ][dK][dL][dK] [D-CONS[R7H^13]]"
  ABCA1-dependent cholesterol efflux EC50: "1100 nM"
- BINDER: "Ac-PVLDEFREKLNE[Gly(oct-7-en-1-yl)]LEALKQKLK [CONS[S8H^13]]"
  ABCA1-dependent cholesterol efflux EC50: "600 nM"
- BINDER: "PXLDEFREKLNEXLXALKQXLK (not fully specified; N-terminal acetyl (Ac-Pro); S7H at 2, 13 and 20; Gla at 15) [CONS[GLA^15, S7H^2,13,20]]"
  ABCA1-dependent cholesterol efflux EC50: "7700 nM"
- BINDER: "Ac-PVLDEFR[Gla]KLNEALEALKQKLK (not fully specified (C-terminus)) [GLA8/ALA13]"
  ABCA1-dependent cholesterol efflux EC50: "142000 nM"

Query binder follows.
ABCA1-dependent cholesterol efflux EC50 in this record for Ac-PVLDE[Ala(5-hexenyl)]REKLNE[Ala(5-hexenyl)]LEALKQKLK [CONS[S7H^6,13]] : 300 nM
